- TEST SUMMARY: Thermostability: relative bioluminescence activity after 30 min incubation
- Type: physicochemical
- ASSAY CONDITIONS: 40° C. for 30 min; CLZ-f
Recorded Thermostability, luminescence activity relative to wt-aequorin by entry
EXPERIMENTAL READOUT: Thermostability, luminescence activity relative to wt-aequorin

{"MOLECULE": "Q159G: apoaequorin mutant, glutamine 159 replaced by glycine (SEQ ID NO:7) (protein, mutant aequorin) SKLTSDFDNPRWIGRHKHMFNFLDVNHNGKISLDEMVYKASDIVINNLGATPEQAKRHKDAVEAFFGGAGMKYGVETDWPAYIEGWKKLATDELEKYAKNEPTLIRIWGDALFDIVDKDQNGAITLDEWKAYTKAAGIIQSSEDCEETFRVCDIDESGGLDVDEMTRQHLGFWYTMDPACEKLYGGAVP", "QUANTITATIVE READOUT": 0.92}
{"MOLECULE": "A123D: apoaequorin mutant, alanine 123 replaced by aspartic acid (SEQ ID NO:10) (protein, mutant aequorin) SKLTSDFDNPRWIGRHKHMFNFLDVNHNGKISLDEMVYKASDIVINNLGATPEQAKRHKDAVEAFFGGAGMKYGVETDWPAYIEGWKKLATDELEKYAKNEPTLIRIWGDALFDIVDKDQNGDITLDEWKAYTKAAGIIQSSEDCEETFRVCDIDESGQLDVDEMTRQHLGFWYTMDPACEKLYGGAVP", "QUANTITATIVE READOUT": 0.84}
